Assign pKd to each entry below.
biological target: Clade C DU172.17 gp120 protein (HIV-1 Clade C, DU172.17); test: BLI (Octet), IgG on anti-hIgG Fc sensor, gp120 analyte, 1:1 fit
Quick note: pKd values are minus log10 of concentrations in mol/L.

[Q] Give me measured pKd, please, for this binder: NglycoSA (antibody, V domains shown) VH: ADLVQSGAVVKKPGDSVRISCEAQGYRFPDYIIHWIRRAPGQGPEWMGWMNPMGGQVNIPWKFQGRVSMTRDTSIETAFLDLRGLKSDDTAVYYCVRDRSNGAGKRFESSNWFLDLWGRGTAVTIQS VL: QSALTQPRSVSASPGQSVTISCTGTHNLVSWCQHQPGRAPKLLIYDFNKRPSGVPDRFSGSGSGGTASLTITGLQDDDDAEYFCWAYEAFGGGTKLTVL
[A] 7.74

[Q] Give me measured pKd, please, for this binder: Germ12 (antibody, V domains shown) VH: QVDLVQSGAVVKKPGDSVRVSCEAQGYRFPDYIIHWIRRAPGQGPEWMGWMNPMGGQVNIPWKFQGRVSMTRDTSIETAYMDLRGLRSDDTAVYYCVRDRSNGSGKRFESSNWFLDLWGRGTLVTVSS VL: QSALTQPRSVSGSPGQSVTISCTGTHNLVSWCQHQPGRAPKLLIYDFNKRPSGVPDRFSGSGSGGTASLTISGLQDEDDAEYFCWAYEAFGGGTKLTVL
[A] 7.67

[Q] Give me measured pKd, please, for this binder: CysCV (antibody, V domains shown) VH: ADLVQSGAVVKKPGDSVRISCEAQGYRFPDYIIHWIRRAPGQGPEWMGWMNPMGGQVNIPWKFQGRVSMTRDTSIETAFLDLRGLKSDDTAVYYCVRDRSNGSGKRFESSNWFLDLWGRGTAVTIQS VL: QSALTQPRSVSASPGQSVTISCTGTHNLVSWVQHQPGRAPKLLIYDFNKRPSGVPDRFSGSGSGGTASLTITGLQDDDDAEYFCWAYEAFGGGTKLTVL
[A] 7.57

[Q] Give me measured pKd, please, for this binder: Germ23 (antibody, V domains shown) VH: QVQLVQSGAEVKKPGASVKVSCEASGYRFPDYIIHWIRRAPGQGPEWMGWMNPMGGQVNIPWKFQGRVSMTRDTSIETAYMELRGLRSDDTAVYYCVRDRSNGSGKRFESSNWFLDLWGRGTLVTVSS VL: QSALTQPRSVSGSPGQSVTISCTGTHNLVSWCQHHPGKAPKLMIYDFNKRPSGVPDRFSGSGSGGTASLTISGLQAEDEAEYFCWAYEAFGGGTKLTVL
[A] 7.65

[Q] Give me measured pKd, please, for this binder: Hydro2 (antibody, V domains shown) VH: ADLVQSGAVVKKPGDSVRISCEAQGYRFPDYIIHWIRRAPGQGPEWMGWMNPMGGQVNIPQKFQGRVSMTRDTSIETAFLDLRGLKSDDTAVYYCVRDRSNGSGKRFESSNWFLDLWGRGTAVTIQS VL: QSALTQPRSVSASPGQSVTISCTGTHNLVSWCQHQPGRAPKLLIYDFNKRPSGVPDRFSGSGSGGTASLTITGLQDDDDAEYFCWAYENFGGGTKLTVL
[A] 7.26

[Q] Give me measured pKd, please, for this binder: Germ17 (antibody, V domains shown) VH: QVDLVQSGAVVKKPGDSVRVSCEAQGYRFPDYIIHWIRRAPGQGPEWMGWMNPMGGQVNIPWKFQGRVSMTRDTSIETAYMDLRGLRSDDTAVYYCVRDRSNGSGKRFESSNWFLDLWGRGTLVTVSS VL: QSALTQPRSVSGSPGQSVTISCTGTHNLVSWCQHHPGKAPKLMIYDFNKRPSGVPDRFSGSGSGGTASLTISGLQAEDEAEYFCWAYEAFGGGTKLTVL
[A] 7.76
